Test: Pharmacokinetics study in rats in vivo, intravenous administration
Design: species or system SD male rats
Conditions: Sprague-Dawley (SD), rat, plasma; SD male rats, intravenous injection at 100 mg/kg, dissolved in saline; read-out: Cl Clearance rate
Description: The pharmacokinetic characteristics in rodents after intravenous administration of the compound was tested with standard scheme. Specifically, SD male rats at the age of 7-10 weeks were administered intravenously with the candidate compound in the experiment. The compound was dissolved in salt water to prepare a clear solution. The plasma samples are collected and analyzed by LC-MS/MS, and the pharmacokinetic parameters were calculated.
reportedProperty: clearance (L/h/kg)
Give just the numeric value; L/h/kg need not be written.

# input Note clearance for the compound shown: NC[C@@H]1CN(C[C@@H]2[C@H](NC(=O)/C(=N\OC3(C(=O)O)CC3)c3csc(N)n3)C(=O)N2S(=O)O)S(=O)(=O)N1 (stereo in doubt)
# output 1.03

====

Experiment: Pharmacokinetics study in rats in vivo, intravenous administration
Parameters: species or system SD male rats
Conditions: Sprague-Dawley (SD), rat, plasma; SD male rats, intravenous injection at 300 mg/kg, dissolved in saline; read-out: Vdss Apparent volume of distribution
reportedProperty: Vd (L/kg)
Write the answer as a number in L/kg, unit excluded.

# input Supply recorded Vd for NC[C@@H]1CN(C[C@@H]2[C@H](NC(=O)/C(=N\OC3(C(=O)O)CC3)c3csc(N)n3)C(=O)N2S(=O)O)S(=O)(=O)N1 (stereo in doubt) here.
# output 0.463

====

Experiment: Pharmacokinetics study in rats in vivo, intravenous administration
Set-up: species or system SD male rats
Details: Sprague-Dawley (SD), rat, plasma; SD male rats, intravenous injection at 300 mg/kg, dissolved in saline; read-out: T1/2 Half-life period (converted)
Method: The pharmacokinetic characteristics in rodents after intravenous administration of the compound was tested with standard scheme. Specifically, SD male rats at the age of 7-10 weeks were administered intravenously with the candidate compound in the experiment. The compound was dissolved in salt water to prepare a clear solution. The plasma samples are collected and analyzed by LC-MS/MS, and the pharmacokinetic parameters were calculated.
reportedProperty: half-life (min)
Give the value, in units of min, as a plain number.

# input Let me know recorded half-life for NC[C@@H]1CN(C[C@@H]2[C@H](NC(=O)/C(=N\OC3(C(=O)O)CC3)c3csc(N)n3)C(=O)N2S(=O)O)S(=O)(=O)N1 (stereo in doubt) , thanks.
# output 21.7

====

Experiment: Pharmacokinetics study in rats in vivo, intravenous administration
Parameters: species or system SD male rats
Conditions: Sprague-Dawley (SD), rat, plasma; SD male rats, intravenous injection at 300 mg/kg, dissolved in saline; read-out: AUC0-last Area under plasma concentration-time curve
reportedProperty: AUC(0-t) (µM·h)
Numeric answer only, unit µM·h assumed.

# input Please supply the value of reported AUC(0-t) for the item NC[C@@H]1CN(C[C@@H]2[C@H](NC(=O)/C(=N\OC3(C(=O)O)CC3)c3csc(N)n3)C(=O)N2S(=O)O)S(=O)(=O)N1 (stereo in doubt)
# output 467

====

Test: Pharmacokinetics study in rats in vivo, intravenous administration
Design: species or system SD male rats
Conditions: Sprague-Dawley (SD), rat, plasma; SD male rats, intravenous injection at 100 mg/kg, dissolved in saline; read-out: AUC0-last Area under plasma concentration-time curve
reportedProperty: AUC(0-t) (µM·h)
Provide the reading as a plain figure in µM·h.

# input Provide AUC(0-t) value for the following compound: NC[C@@H]1CN(C[C@@H]2[C@H](NC(=O)/C(=N\OC3(C(=O)O)CC3)c3csc(N)n3)C(=O)N2S(=O)O)S(=O)(=O)N1 (stereo in doubt)
# output 166
